tested on: Botrytis cinerea; experiment: In vivo preventive test on Botrytis cinerea (grey mould); conditions: dose 500 ppm; gherkin
property: Efficacy (Table B1) (%)
Form entry: value (%) — number only.

stdin: Provide value of Efficacy (Table B1) for this record tested with Botrytis cinerea: Cn1nc(C(F)F)c(C(=O)N(Cc2ncc(C(F)(F)F)cc2-c2ccnc3cc(Cl)ccc23)C2CC2)c1F
stdout: 83

stdin: Provide value of Efficacy (Table B1) for this record tested with Botrytis cinerea: Cn1nc(C(F)F)c(C(=O)N(Cc2ncc(C(F)(F)F)cc2-c2cccnc2)C2CC2)c1F [CMP2, reference compound]
stdout: 0

stdin: Provide value of Efficacy (Table B1) for this record tested with Botrytis cinerea: Cn1nc(C(F)F)c(C(=O)N(Cc2ncc(C(F)(F)F)cc2-c2ccncc2)C2CC2)c1F [CMP3, reference compound]
stdout: 0

stdin: Provide value of Efficacy (Table B1) for this record tested with Botrytis cinerea: Cn1nc(C(F)F)c(C(=O)N(Cc2ncc(C(F)(F)F)cc2-c2cccs2)C2CC2)c1F
stdout: 95

stdin: Provide value of Efficacy (Table B1) for this record tested with Botrytis cinerea: Cn1nc(C(F)F)c(C(=O)N(Cc2ncc(C(F)(F)F)cc2-c2coc3ccccc23)C2CC2)c1F
stdout: 100

====

For each record, write down the corresponding logP.
assay: log P by HPLC on reversed-phase column (C 18), EEC Directive 79/831 Annex V.A8; type: physicochemical; conditions: HPLC C 18, 40° C., 0.1% aqueous formic acid and acetonitrile, gradient 10% to 90% acetonitrile

stdin: Entry Cn1cc(C(=O)N(Cc2cc(Br)cnc2Sc2nccs2)C2CC2)c(C(F)F)n1 [Example I.58] has what logP?
stdout: 3.09

stdin: Entry Cc1csc(-c2cc(C(F)(F)F)cnc2CN(C(=O)c2c(C(F)F)nn(C)c2F)C2CC2)c1 [I.32] has what logP?
stdout: 4.27

stdin: Entry Cc1occc1-c1c(CN(C(=O)c2c(C(F)F)nn(C)c2F)C2CC2)sc2ccccc12 [I.52] has what logP?
stdout: 4.20

stdin: Entry CC(=O)c1ccc(-c2cc(C(F)(F)F)cnc2CN(C(=O)c2c(C(F)F)nn(C)c2F)C2CC2)s1 [I.24] has what logP?
stdout: 3.48

stdin: Entry Cc1ccc(-c2ccsc2CN(C(=O)c2sc(C)nc2C(F)F)C2CC2)s1 [I.06] has what logP?
stdout: 4.08

stdin: Entry Cc1ccc(-c2ccsc2CN(C(=O)c2nn(C)nc2C(F)F)C2CC2)s1 [I.07] has what logP?
stdout: 4.11

stdin: Entry Cn1nc(C(F)F)c(C(=O)N(Cc2ncc(C(F)(F)F)cc2-c2ccoc2)C2CC2)c1F [I.26] has what logP?
stdout: 3.48

stdin: Entry Cn1ccc(-c2c(CN(C(=O)c3c(C(F)F)nn(C)c3F)C3CC3)sc3ccccc23)c1 [I.51] has what logP?
stdout: 3.89

stdin: Entry Cn1nc(C(F)F)c(C(=O)N(Cc2ncc(C(F)(F)F)cc2-c2coc3ccccc23)C2CC2)c1F [I.31] has what logP?
stdout: 4.16

stdin: Entry Cn1nc(C(F)F)c(C(=O)N(Cc2ncc(C(F)(F)F)cc2-c2csc3ccccc23)C2CC2)c1F [I.20] has what logP?
stdout: 4.46

stdin: Entry Cn1nc(C(F)F)c(C(=O)N(Cc2sc3ccccc3c2-c2cncnc2)C2CC2)c1F [I.54] has what logP?
stdout: 2.76

stdin: Entry Cn1nc(C(F)F)c(C(=O)N(Cc2ncc(C(F)(F)F)cc2-c2ccco2)C2CC2)c1F [I.30] has what logP?
stdout: 3.68

stdin: Entry Cn1nc(C(F)F)c(C(=O)N(Cc2nn(-c3ccccc3)cc2-c2csc3ccccc23)C2CC2)c1F [I.03] has what logP?
stdout: 4.53

stdin: Entry Cn1cc(C(=O)N(Cc2ncc(C(F)(F)F)cc2-c2cnc3ccccc3c2)C2CC2)c(C(F)F)n1 [I.44] has what logP?
stdout: 2.82

stdin: Entry Cn1nc(C(F)F)c(C(=O)N(Cc2ncc(C(F)(F)F)cc2-c2cnc3ccccc3c2)C2CC2)c1F [I.27] has what logP?
stdout: 3.25

stdin: Entry CC(C)c1nc(-c2c(CN(C(=O)c3c(C(F)F)nn(C)c3F)C3CC3)sc3ccccc23)cs1 [I.49] has what logP?
stdout: 4.61

====

system: Puccinia recondita; experiment: In vivo preventive test on Puccinia recondita (brown rust on wheat); settings: dose 125 ppm; in very similar conditions; prior-art analogues
property: Efficacy (Table C2) (%)
Form entry: value (%) — number only.

stdin: Provide value of Efficacy (Table C2) for this record tested with Puccinia recondita: Cc1nn(C)c(F)c1C(=O)N(Cc1cn(-c2ccccc2)c2ccccc12)C1CC1
stdout: 17

stdin: Provide value of Efficacy (Table C2) for this record tested with Puccinia recondita: Cn1cc(C(=O)N(Cc2cn(-c3ccccc3)c3ccccc23)C2CC2)c(C(F)F)n1
stdout: 0

stdin: Provide value of Efficacy (Table C2) for this record tested with Puccinia recondita: CCc1nn(C)c(F)c1C(=O)N(Cc1cn(-c2ccccc2)c2ccccc12)C1CC1
stdout: 22

stdin: Provide value of Efficacy (Table C2) for this record tested with Puccinia recondita: Cn1cc(C(=O)N(Cc2ccc(Oc3ccccc3)nc2)C2CC2)c(C(F)F)n1
stdout: 0

stdin: Provide value of Efficacy (Table C2) for this record tested with Puccinia recondita: Cc1nn(C)c(F)c1C(=O)N(Cc1ccc(Oc2ccccc2)nc1)C1CC1
stdout: 0

====

assay: log P by HPLC on reversed-phase column (C 18), EEC Directive 79/831 Annex V.A8; format: physicochemical; conditions: reversed-phase HPLC column (C 18); HPLC C 18, 40° C., 0.1% aqueous formic acid and acetonitrile, gradient 10% to 90% acetonitrile
property: chromatographic logP
Form field (numeric): enter value without unit.

stdin: Entry Cc1ccc(-c2ccsc2CNC2CC2)s1 has what chromatographic logP?
stdout: 1.39

stdin: Entry Cn1nc(C(F)F)c(C(=O)N(Cc2ncc(C(F)(F)F)cc2Cl)C2CC2)c1F has what chromatographic logP?
stdout: 3.35

stdin: Entry Cn1nc(C(F)F)c(C(=O)N(Cc2ncc(C(F)(F)F)cc2-c2ccsc2)C2CC2)c1F has what chromatographic logP?
stdout: 3.67

stdin: Entry Cn1nc(C(F)F)c(C(=O)N(Cc2sc3ccccc3c2-c2coc3ccccc23)C2CC2)c1F has what chromatographic logP?
stdout: 4.61

====

For each record, write down the corresponding logP.
experiment: log P by HPLC on reversed-phase column (C 18), EEC Directive 79/831 Annex V.A8; assay type: physicochemical; details: HPLC C 18, 40° C., 0.1% aqueous formic acid and acetonitrile, gradient 10% to 90% acetonitrile

stdin: Entry Cc1cc(C(=O)N(Cc2sccc2-c2ccc(C)s2)C2CC2)c(C)o1 has what logP?
stdout: 4.54

stdin: Entry Cc1ccc(-c2ccsc2CN(C(=O)c2ccsc2Br)C2CC2)s1 has what logP?
stdout: 4.69

stdin: Entry Cc1ccsc1-c1cc(C(F)(F)F)cnc1CN(C(=O)c1c(C(F)F)nn(C)c1F)C1CC1 has what logP?
stdout: 4.11

stdin: Entry Cn1nc(C(F)F)c(C(=O)N(Cc2nn(-c3ccccc3)cc2C2CCOCC2)C2CC2)c1F has what logP?
stdout: 3.15

stdin: Entry Cn1nc(C(F)F)c(C(=O)N(Cc2ncc(C(F)(F)F)cc2-c2cccs2)C2CC2)c1F has what logP?
stdout: 3.89

stdin: Entry Cc1noc(C)c1-c1c(CN(C(=O)c2c(C(F)F)nn(C)c2F)C2CC2)sc2ccccc12 has what logP?
stdout: 3.51

stdin: Entry Cn1nc(C(F)F)c(C(=O)N(Cc2ncc(C(F)(F)F)cc2-c2cc3ccccc3s2)C2CC2)c1F has what logP?
stdout: 4.73

stdin: Entry Cn1cncc1-c1c(CN(C(=O)c2c(C(F)F)nn(C)c2F)C2CC2)sc2ccccc12 has what logP?
stdout: 1.66

stdin: Entry Cn1nc(C(F)F)c(C(=O)N(Cc2nn(-c3ccccc3)cc2-c2ccc3c(ccn3C)c2)C2CC2)c1F has what logP?
stdout: 4.16

stdin: Entry Cn1cc(C(=O)N(Cc2ncc(C(F)(F)F)cc2-c2cccs2)C2CC2)c(C(F)F)n1 has what logP?
stdout: 3.46

stdin: Entry Cn1nc(C(F)F)c(C(=O)N(Cc2ncc(C(F)(F)F)cc2-c2cc3ccccc3nc2O)C2CC2)c1F has what logP?
stdout: 2.76

stdin: Entry Cn1nc(C(F)F)c(C(=S)N(Cc2ncc(C(F)(F)F)cc2-c2cnc3ccccc3c2)C2CC2)c1F has what logP?
stdout: 3.90

stdin: Entry Cn1nc(C(F)F)c(C(=S)N(Cc2ncc(C(F)(F)F)cc2-c2ccoc2)C2CC2)c1F has what logP?
stdout: 4.03

stdin: Entry Cn1cc(C(=O)N(Cc2ncc(C(F)(F)F)cc2-c2csc3ccccc23)C2CC2)c(C(F)F)n1 has what logP?
stdout: 3.92

stdin: Entry Cn1cc(C(=O)N(Cc2cc(Br)cnc2Sc2cnc3ccccc3c2)C2CC2)c(C(F)F)n1 has what logP?
stdout: 3.27

stdin: Entry Cn1nc(C(F)F)c(C(=O)N(Cc2ncc(C(F)(F)F)cc2-c2ccnc3cc(Cl)ccc23)C2CC2)c1F has what logP?
stdout: 3.78

stdin: Entry Cc1cscc1-c1cc(C(F)(F)F)cnc1CN(C(=O)c1cn(C)nc1C(F)F)C1CC1 has what logP?
stdout: 3.69

stdin: Entry Cn1nc(C(F)F)c(C(=O)N(Cc2nn(-c3ccccc3)cc2C2=CCOCC2)C2CC2)c1F has what logP?
stdout: 3.26

stdin: Entry Cc1nc(C)c(-c2sccc2CN(C(=O)c2c(C(F)F)nn(C)c2F)C2CC2)s1 has what logP?
stdout: 2.88

stdin: Entry Cn1cc(C(=O)N(Cc2ncc(C(F)(F)F)cc2-c2ccsc2)C2CC2)c(C(F)F)n1 has what logP?
stdout: 3.42

stdin: Entry Cn1nc(C(F)F)c(C(=S)N(Cc2nn(-c3ccccc3)cc2-c2ccc3c(ccn3C)c2)C2CC2)c1F has what logP?
stdout: 4.64

stdin: Entry Cn1nc(C(F)F)c(C(=O)N(Cc2ncc(C(F)(F)F)cc2-c2ccc(Cl)s2)C2CC2)c1F has what logP?
stdout: 4.54

stdin: Entry Cc1ccc(-c2cc(C(F)(F)F)cnc2CN(C(=O)c2c(C(F)F)nn(C)c2F)C2CC2)s1 has what logP?
stdout: 4.35

stdin: Entry Cn1cc(C(=O)N(Cc2ncc(C(F)(F)F)cc2-c2ccco2)C2CC2)c(C(F)F)n1 has what logP?
stdout: 3.29

stdin: Entry Cc1cscc1-c1cc(C(F)(F)F)cnc1CN(C(=S)c1c(C(F)F)nn(C)c1F)C1CC1 has what logP?
stdout: 4.67

stdin: Entry Cc1ccc(-c2cc(C(F)(F)F)cnc2CN(C(=O)c2c(C(F)F)nn(C)c2F)C2CC2)o1 has what logP?
stdout: 3.69

stdin: Entry Cn1cc(C(=O)N(Cc2cc(Br)cnc2Oc2cnc3ccccc3c2)C2CC2)c(C(F)F)n1 has what logP?
stdout: 3.09

stdin: Entry COc1ccsc1-c1cc(C(F)(F)F)cnc1CN(C(=O)c1c(C(F)F)nn(C)c1F)C1CC1 has what logP?
stdout: 3.89

stdin: Entry Cn1cc(C(=O)N(Cc2ncc(C(F)(F)F)cc2-c2ccnc3cc(Cl)ccc23)C2CC2)c(C(F)F)n1 has what logP?
stdout: 3.27

stdin: Entry Cc1ccc(-c2ccsc2CN(C(=O)c2cn(C)cc2C(F)(F)F)C2CC2)s1 has what logP?
stdout: 4.18

stdin: Entry Cn1cc(C(=O)N(Cc2ncc(C(F)(F)F)cc2-c2ccoc2)C2CC2)c(C(F)F)n1 has what logP?
stdout: 3.15

stdin: Entry Cn1cc(C(=O)N(Cc2ncc(C(F)(F)F)cc2-c2coc3ccccc23)C2CC2)c(C(F)F)n1 has what logP?
stdout: 3.73

stdin: Entry Cc1cscc1-c1cc(C(F)(F)F)cnc1CN(C(=O)c1c(C(F)F)nn(C)c1F)C1CC1 has what logP?
stdout: 4.12
